Literature-derived pKi for Beta-secretase 2 (Homo sapiens) follows.
pKi: −log10 of the molar value.
Would you mind labelling by pKi? At or over 8 is Satisfied, under is Not satisfied.

Decide: pKi of CN1C(=N)N[C@](C)(c2sc(-c3nnc(-c4cc5ccccn5n4)o3)cc2Cl)CS1(=O)=O >= 8?
Not satisfied

Decide: pKi of Cc1cc(C#N)cnc1C(=O)Nc1ccc2c(c1)[C@]1(CCO2)CS(=O)(=O)C(C)(C)C(=N)N1 >= 8?
Satisfied

Decide: pKi of COC[C@H]1C[C@@H]2[C@](c3cc(Oc4cc(C#N)ccn4)ccc3F)(CO1)NC(=N)N(C)S2(=O)=O >= 8?
Satisfied

Decide: pKi of C[C@@]1(c2sc(-c3cccc(C#N)c3)cc2Cl)Cc2nc(C3CC3)ncc2C(=N)N1 >= 8?
Not satisfied

Decide: pKi of CC#CCOc1ccc(C(=O)Nc2ccc(F)c([C@]3(C)CS(=O)(=O)C4(CCN(C)CC4)C(=N)N3)c2)nc1 >= 8?
Not satisfied

Decide: pKi of C[C@@]1(c2cc(NC(=O)c3ccc(F)cn3)ccc2F)CS(=O)(=O)C2(CCOCC2)C(=N)N1 >= 8?
Satisfied
